# Test system: MCF7
# assay.text: Cytotoxicity against human MCF7 cells after 48 hrs by MTT assay
# Type: functional, cell-based
# assay.setup: MCF7, 48 h, read-out: IC50
# IC50 annotations

>  <compound>
C[C@@H]1C[C@](O)([C@@H]2CC[C@@H]3[C@@H](C2)C(=O)[C@@H](O)[C@@H]2C(C)(C)[C@H]4CC(=O)[C@@]32CO4)C(=O)O1 [LAXIFLOROLIDE B]

>  <qualifier.sign>
>

>  <IC50 / µM>
40

$$$$
>  <compound>
C=C1C(=O)[C@]23C[C@H]1CC[C@H]2[C@@]12CO[C@]3(O)[C@@H](O)[C@@H]1C(C)(C)C=CC2=O

>  <qualifier.sign>
=

>  <IC50 / µM>
0.6

$$$$
>  <compound>
C=C1[C@@H]2CC[C@H]3[C@]45CO[C@H](CC4=O)C(C)(C)C5=C(O)C(=O)[C@]3(C2)[C@@H]1O (relative stereo)

>  <qualifier.sign>
=

>  <IC50 / µM>
12.9

$$$$
>  <compound>
CC1(C)[C@H]2[C@H](O)C(=O)[C@@H]3C[C@H](C(=O)O)CC[C@H]3[C@@]23CO[C@@H]1CC3=O

>  <qualifier.sign>
>

>  <IC50 / µM>
40

$$$$
>  <compound>
C=C(C=O)[C@@H]1CC[C@@H]2[C@@H](C1)C(=O)[C@@H](O)[C@@H]1C(C)(C)[C@H]3CC(=O)[C@@]21CO3

>  <qualifier.sign>
=

>  <IC50 / µM>
3.2

$$$$
>  <compound>
C[C@H]1C[C@](O)([C@@H]2CC[C@@H]3[C@@H](C2)C(=O)[C@@H](O)[C@@H]2C(C)(C)[C@H]4CC(=O)[C@@]32CO4)C(=O)O1 [LAXIFLOROLIDE A]

>  <qualifier.sign>
>

>  <IC50 / µM>
40

$$$$
>  <compound>
C=C1[C@@H]2CC[C@H]3[C@@]45CO[C@](O)([C@@H](O)[C@@H]4C(C)(C)C=CC5=O)[C@]3(C2)[C@@H]1O

>  <qualifier.sign>
=

>  <IC50 / µM>
14.4

$$$$
>  <compound>
C=C1C(=O)[C@]23C[C@H]1CC[C@H]2[C@]12CO[C@H](CC1=O)C(C)(C)C2=C(O)C3=O

>  <qualifier.sign>
=

>  <IC50 / µM>
1.8

$$$$
